The measured values listed here are drawn from the supplement of paper PMC6555819.

Please provide measured PBM binding z-score for the entries that follow.
test system: PXR homodimer (NR concentration 270 nM); assay: PBM binding z-score (relative to random genomic background probes); higher = stronger binding; sequences stand for … in GC…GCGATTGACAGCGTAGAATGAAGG

Quick one: PBM binding z-score of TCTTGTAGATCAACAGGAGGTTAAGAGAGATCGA ? -0.445

Could you share which PBM binding z-score value was measured for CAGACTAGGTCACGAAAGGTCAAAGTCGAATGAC ? 2.84

Which PBM binding z-score reading was recorded for the sequence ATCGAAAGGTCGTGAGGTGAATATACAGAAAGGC ? 0.656

# PBM binding z-score lookup, item AATATAGGGTCACTAGGCCAGAGTAGGTACGAAT 0.508

If you can, please state the reported PBM binding z-score value of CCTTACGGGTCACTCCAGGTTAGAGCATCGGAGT . 0.36

Report PBM binding z-score for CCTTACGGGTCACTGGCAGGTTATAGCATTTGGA please. 0.0403

Which PBM binding z-score value is on record for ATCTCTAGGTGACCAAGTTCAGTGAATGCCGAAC ? 1.7

Record request: PBM binding z-score value, item ATCTCTAGGTAAAAGTTCTGTGAATCCCGAGGAT 0.034

GET /values?readout=PBM binding z-score&item= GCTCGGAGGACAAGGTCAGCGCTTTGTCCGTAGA -0.34

Reported PBM binding z-score, sequence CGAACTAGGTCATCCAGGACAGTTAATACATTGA : ____ 1.63

What PBM binding z-score value was documented for this sequence, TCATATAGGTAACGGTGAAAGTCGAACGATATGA ? -0.0521

Look up PBM binding z-score for this sequence: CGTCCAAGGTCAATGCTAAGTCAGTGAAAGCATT 0.823

* * *

Kindly state PBM binding z-score for each of the entries shown.
system: PPARg homodimer (NR concentration 180 nM); experiment: PBM binding z-score (relative to random genomic background probes); higher = stronger binding; sequences stand for … in GC…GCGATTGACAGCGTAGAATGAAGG
The answer should be written as a number, with no unit following it.

Item: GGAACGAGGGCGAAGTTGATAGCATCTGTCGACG Test system: PPARg homodimer (NR concentration 180 nM) Read-out: PBM binding z-score Value: ? 0.0285

Lab note: need PBM binding z-score with PPARg homodimer (NR concentration 180 nM) for entry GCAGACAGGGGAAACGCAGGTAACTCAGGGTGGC , please look it up. -1.42

Kindly state the measured PBM binding z-score obtained for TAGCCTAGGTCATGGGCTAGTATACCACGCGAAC with PPARg homodimer (NR concentration 180 nM). 1.36

Report PBM binding z-score for CCGAGTAGGTTAAGGGGCATTCAGGCAACGGTGA tested on PPARg homodimer (NR concentration 180 nM). 0.976

Kindly state the measured PBM binding z-score obtained for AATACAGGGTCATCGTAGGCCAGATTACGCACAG with PPARg homodimer (NR concentration 180 nM). 3.02

What measured PBM binding z-score is associated with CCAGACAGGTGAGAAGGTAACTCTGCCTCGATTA on PPARg homodimer (NR concentration 180 nM)? 0.832

What measured PBM binding z-score is associated with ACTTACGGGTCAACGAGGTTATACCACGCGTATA on PPARg homodimer (NR concentration 180 nM)? 2.9

Identify the measured PBM binding z-score of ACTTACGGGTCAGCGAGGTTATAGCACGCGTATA for PPARg homodimer (NR concentration 180 nM). 1.62

Identify the measured PBM binding z-score of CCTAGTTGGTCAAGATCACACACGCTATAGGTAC for PPARg homodimer (NR concentration 180 nM). 1.14

Form entry - test system: PPARg homodimer (NR concentration 180 nM); read-out: PBM binding z-score; sequence: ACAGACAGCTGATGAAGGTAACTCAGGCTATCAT 0.00151

Quick check: PBM binding z-score on PPARg homodimer (NR concentration 180 nM), item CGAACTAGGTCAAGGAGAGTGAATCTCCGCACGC ? 0.896

Provide the documented PBM binding z-score with PPARg homodimer (NR concentration 180 nM) as the system for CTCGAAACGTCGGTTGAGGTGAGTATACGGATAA 0.264

* * *

system: PPARg:RXRa DBDmut IVT, anti-RXR (DBD mutation: RXRa K156A/R161A, NR concentration 270 nM, RXRa partner concentration 90 nM); test: PBM binding z-score (relative to random genomic background probes); higher = stronger binding; sequences stand for … in GC…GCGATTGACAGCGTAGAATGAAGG
Respond with Fulfilled for PBM binding z-score values of 2 and above, Not fulfilled for values below.

Threshold query (PBM binding z-score >= 2) on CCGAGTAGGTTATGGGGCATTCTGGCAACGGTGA Fulfilled

# check: PBM binding z-score of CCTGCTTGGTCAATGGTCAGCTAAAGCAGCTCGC is greater than or equal to 2 Not fulfilled

State whether the measured PBM binding z-score reaches 2, counting equality as reaching it, for CAAACTAGGTCACAGAGCTCAAAGTCCGTGCGTA Fulfilled

Quick check: does ACAGACAGGCGATGAAGGTAACTCAGGCTATCAT have PBM binding z-score greater than or equal to 2? Not fulfilled

Textbook exercise: given the entry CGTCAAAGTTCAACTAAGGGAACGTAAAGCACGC , state whether its PBM binding z-score is greater than or equal to 2. Not fulfilled

Confirm if PBM binding z-score reported for the sequence TCTGCTAGGTCAGTCGGTCAGCTAACGAGCTGCC is 2 or above. Fulfilled

Does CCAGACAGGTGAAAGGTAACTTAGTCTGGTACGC have a reported PBM binding z-score of at least 2? Fulfilled

Could you please find out whether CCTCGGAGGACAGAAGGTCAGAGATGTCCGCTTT has PBM binding z-score that meets 2 or exceeds it? Not fulfilled

Is the recorded value of PBM binding z-score equal to or greater than 2 for this sequence? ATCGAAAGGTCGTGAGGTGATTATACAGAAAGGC Not fulfilled

Could you please find out whether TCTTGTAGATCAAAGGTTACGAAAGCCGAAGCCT has PBM binding z-score that meets 2 or exceeds it? Fulfilled

Given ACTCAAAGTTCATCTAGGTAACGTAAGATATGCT , state whether its PBM binding z-score is at least 2. Not fulfilled

Kindly determine if PBM binding z-score recorded for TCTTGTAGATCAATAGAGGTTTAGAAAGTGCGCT is above or exactly 2. Not fulfilled

* * *

system: RARg:RXRa (NR concentration 270 nM, RXRa partner concentration 90 nM); assay: PBM binding z-score (relative to random genomic background probes); higher = stronger binding; sequences stand for … in GC…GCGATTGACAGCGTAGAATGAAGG
I'd be grateful if you could share measured PBM binding z-score for these entries.
Hey, just send me the number, nothing else.

What value of measured PBM binding z-score is listed for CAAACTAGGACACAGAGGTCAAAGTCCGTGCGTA ? 5.54

Name the reported PBM binding z-score value associated with the sequence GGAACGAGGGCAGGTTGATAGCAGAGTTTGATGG 0.763

Field request: PBM binding z-score | item: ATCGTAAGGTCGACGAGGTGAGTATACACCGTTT 3.18

So what's the measured PBM binding z-score for this one? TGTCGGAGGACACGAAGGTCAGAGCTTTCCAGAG 3.38

Which PBM binding z-score value is on record for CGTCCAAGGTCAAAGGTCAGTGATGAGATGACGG ? 8.67

Recorded PBM binding z-score of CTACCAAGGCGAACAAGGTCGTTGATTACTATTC , please. 0.29

May I ask what PBM binding z-score has been recorded for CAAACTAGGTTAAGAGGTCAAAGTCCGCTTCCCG ? 5.88

If you can, please state the reported PBM binding z-score value of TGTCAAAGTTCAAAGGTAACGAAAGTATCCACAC . 6.36

May I ask what PBM binding z-score has been recorded for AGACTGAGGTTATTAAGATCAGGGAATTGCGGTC ? 1.13

// returns reported PBM binding z-score for input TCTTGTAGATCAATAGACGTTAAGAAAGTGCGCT -0.0458

Reported PBM binding z-score for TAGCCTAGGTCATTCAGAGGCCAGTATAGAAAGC : what is it? 5.8

Which PBM binding z-score is reported for this sequence? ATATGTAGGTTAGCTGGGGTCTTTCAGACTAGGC 0.713

Requested read-out: PBM binding z-score. Entry: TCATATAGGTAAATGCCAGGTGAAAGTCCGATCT 0.611

// returns reported PBM binding z-score for input CCTAGCAGGCCAATCTGGGTCACTCAGGGCTTGA 0.923

Which PBM binding z-score value is on record for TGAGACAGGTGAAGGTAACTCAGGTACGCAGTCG ? 0.201

Which PBM binding z-score is reported for this sequence? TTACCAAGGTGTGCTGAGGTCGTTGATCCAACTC 0.184

Fill in the blank: the reported PBM binding z-score of AGTCAAGGTTCAGGACGAGGTAACGTAAAGCACG is ____. 3.45

Param item = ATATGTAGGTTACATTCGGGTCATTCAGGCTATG ; retrieve measured PBM binding z-score. 3.72

// query PBM binding z-score value for entry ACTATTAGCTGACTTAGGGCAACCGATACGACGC 0.504

Item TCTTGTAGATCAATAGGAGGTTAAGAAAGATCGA has what recorded PBM binding z-score? 0.595

Query (sequence): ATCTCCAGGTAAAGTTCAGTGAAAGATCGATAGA ; field requested: PBM binding z-score 2.26

Given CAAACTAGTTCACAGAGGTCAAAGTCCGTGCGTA , state its recorded PBM binding z-score. 6.03

What does the record list as PBM binding z-score for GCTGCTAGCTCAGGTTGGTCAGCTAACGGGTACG ? -0.618

Sample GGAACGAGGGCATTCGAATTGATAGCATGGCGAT — what was its PBM binding z-score? 1.21

Which PBM binding z-score value belongs to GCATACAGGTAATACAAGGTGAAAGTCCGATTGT ? 0.773

Which measured PBM binding z-score value corresponds to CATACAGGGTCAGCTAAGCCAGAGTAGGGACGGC ? 4.23

Please look up its PBM binding z-score: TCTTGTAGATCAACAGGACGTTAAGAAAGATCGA 0.531

Entry under review: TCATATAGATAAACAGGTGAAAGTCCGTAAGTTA . Reported PBM binding z-score? 0.467

Value lookup for PBM binding z-score; key = CTCGAAAGGTCGGTTGAGGGGAGTATACGGATAA 2.44

Which measured PBM binding z-score value corresponds to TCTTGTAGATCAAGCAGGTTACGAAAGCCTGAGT ? 0.206

What does the record list as PBM binding z-score for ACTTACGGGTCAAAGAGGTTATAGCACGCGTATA ? 5.32

Fill blank: measured PBM binding z-score of the sequence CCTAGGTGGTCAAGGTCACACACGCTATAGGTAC is ____. 4.81

Any idea what PBM binding z-score was measured for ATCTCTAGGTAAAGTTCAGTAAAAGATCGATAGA ? 2.22

Entry under review: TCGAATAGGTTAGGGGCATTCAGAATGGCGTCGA . Reported PBM binding z-score? 0.753

Tell me the measured PBM binding z-score of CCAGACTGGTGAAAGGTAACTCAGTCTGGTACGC , please. 0.0585

So what does the record say about PBM binding z-score for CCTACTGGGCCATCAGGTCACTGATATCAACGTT ? 2.28

Looking for the measured PBM binding z-score of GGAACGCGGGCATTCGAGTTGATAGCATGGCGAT , can you help? -0.144

Sample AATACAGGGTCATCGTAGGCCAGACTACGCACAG — what was its PBM binding z-score? 5.54

Suppose we examine the sequence AGTTAAAGTTCAGGACGAGGTAACGTAAAGCACG ; what PBM binding z-score value has been reported? 4.5

Which PBM binding z-score reading was recorded for the sequence TCTAGTTGGTCAAAGGACACACACTCGAAATGCG ? 1.75

So what's the measured PBM binding z-score for this one? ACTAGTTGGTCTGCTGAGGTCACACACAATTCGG 3.33

# lookup: PBM binding z-score of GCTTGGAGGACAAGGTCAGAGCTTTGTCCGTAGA 3.03

Consider the sequence shown here: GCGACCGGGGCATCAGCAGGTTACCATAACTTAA What is its recorded PBM binding z-score? 2.27

Which value of PBM binding z-score has been reported for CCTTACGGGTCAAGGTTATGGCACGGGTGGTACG in the records? 5.06

May I ask what PBM binding z-score has been recorded for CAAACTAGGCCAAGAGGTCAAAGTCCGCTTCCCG ? 5.84

Look up PBM binding z-score for this sequence: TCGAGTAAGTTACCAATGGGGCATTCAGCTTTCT -0.261

# get_value(readout='PBM binding z-score', item= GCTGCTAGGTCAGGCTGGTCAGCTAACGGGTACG ) 2.75

Give the measured PBM binding z-score of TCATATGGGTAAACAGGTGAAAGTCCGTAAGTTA . 0.0718

I would be grateful if you could share the reported PBM binding z-score for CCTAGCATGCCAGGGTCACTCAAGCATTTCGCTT . 2.81

Which PBM binding z-score is reported for this sequence? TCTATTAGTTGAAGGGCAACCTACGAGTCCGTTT 0.698

So what's the measured PBM binding z-score for this one? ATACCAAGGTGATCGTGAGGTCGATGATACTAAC 2.16
